# STUDY_SYSTEM: GABAA receptor α1β2γ2 (Homo sapiens, UniProt P14867+P18507)
# Construct: expressed in transfected cells; host or cells: Xenopus laevis oocytes injected with cRNA
# Sequence (P14867 28-456): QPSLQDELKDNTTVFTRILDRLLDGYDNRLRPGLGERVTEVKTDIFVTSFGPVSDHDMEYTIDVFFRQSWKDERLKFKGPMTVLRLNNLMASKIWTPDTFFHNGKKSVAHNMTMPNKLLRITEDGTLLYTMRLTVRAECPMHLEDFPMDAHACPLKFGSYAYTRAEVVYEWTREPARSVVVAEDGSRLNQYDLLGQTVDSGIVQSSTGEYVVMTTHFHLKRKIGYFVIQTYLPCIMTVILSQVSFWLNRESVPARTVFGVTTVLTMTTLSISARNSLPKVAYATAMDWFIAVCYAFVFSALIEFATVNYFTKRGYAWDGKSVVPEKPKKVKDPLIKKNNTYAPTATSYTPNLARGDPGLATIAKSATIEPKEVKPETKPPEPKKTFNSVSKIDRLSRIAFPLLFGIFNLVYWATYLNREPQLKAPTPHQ
# Sequence (P47870 25-512 partner limits assumed): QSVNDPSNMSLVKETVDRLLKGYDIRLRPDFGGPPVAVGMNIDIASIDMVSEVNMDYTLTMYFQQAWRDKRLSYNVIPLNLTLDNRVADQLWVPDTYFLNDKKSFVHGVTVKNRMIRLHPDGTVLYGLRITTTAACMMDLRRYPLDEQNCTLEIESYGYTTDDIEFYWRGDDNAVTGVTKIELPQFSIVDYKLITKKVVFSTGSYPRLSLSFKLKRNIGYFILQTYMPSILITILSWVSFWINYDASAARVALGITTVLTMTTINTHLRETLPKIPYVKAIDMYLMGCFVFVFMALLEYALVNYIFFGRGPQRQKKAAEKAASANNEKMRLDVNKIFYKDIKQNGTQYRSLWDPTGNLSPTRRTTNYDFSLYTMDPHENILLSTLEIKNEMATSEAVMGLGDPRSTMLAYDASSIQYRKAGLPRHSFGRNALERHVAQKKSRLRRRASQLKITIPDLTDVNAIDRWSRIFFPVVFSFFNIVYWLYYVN
# Sequence (P18507 40-475): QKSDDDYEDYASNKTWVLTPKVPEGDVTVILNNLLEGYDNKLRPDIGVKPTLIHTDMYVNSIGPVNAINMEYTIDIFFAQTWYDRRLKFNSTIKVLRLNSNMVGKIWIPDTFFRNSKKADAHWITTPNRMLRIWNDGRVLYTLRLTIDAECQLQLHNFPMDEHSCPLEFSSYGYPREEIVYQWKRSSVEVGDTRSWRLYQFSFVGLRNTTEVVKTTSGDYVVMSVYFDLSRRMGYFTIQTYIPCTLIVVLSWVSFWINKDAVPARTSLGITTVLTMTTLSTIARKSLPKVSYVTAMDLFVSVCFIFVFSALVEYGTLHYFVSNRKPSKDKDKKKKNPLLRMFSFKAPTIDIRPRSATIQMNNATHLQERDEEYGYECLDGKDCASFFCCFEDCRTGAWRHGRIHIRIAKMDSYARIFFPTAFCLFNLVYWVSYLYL
# TEST_DETAILS: Two-electrode voltage-clamp potentiation of GABA EC10 current in Xenopus oocytes, GABAA1
# Format: cell-based
# MEASUREMENT_PARAMETERS: percentage potentiation of GABA EC10 current divided by that of diazepam
Exam item: assign Met to entries whose Relative Potentiation for GABAA1 is below 0 and Not met to entries at or above 0. Note that a value of exactly 0 receives Not met.

For orientation, consider the following solved cases.
1) Nc1c2c(nc3c(-c4cc(Cl)ccc4Cl)cccc13)CN(C1CCC1)C2=O
Not met
2) COc1ccc(CN2Cc3nc4c(-c5cc(F)ccc5F)cccc4c(N)c3C2=O)cc1 [Example 2]
Not met
3) N#Cc1ccc(-c2cccc3c(N)c4c(nc23)CN(C2CCC2)C4=O)cn1
Met
4) CCCN1Cc2nc3c(-c4cc(OC)ccc4F)cccc3c(N)c2C1=O
Not met

Query: Record Nc1c2c(nc3c(-c4c(F)cccc4F)cccc13)CN(C1CC1)C2=O [Example 114] : is its Relative Potentiation for GABAA1 strictly below 0?
Response: Met

====

# STUDY_SYSTEM: GABAA receptor α1β2γ2 (Homo sapiens, UniProt P14867+P18507)
# Construct: expressed in transfected cells; host or cells: Xenopus laevis oocytes injected with cRNA
# TEST_DETAILS: Two-electrode voltage-clamp potentiation of GABA EC10 current in Xenopus oocytes, GABAA1
# Assay type: cell-based
# MEASUREMENT_PARAMETERS: percentage potentiation of GABA EC10 current divided by that of diazepam
MEASURED_METRIC: Relative Potentiation for GABAA1

Here's what some known entries look like.
1) COc1ccc(Cl)c(-c2cccc3c(N)c4c(nc23)CN(C2CC2)C4=O)c1
0.068
2) CCN1Cc2nc3c(-c4ccc(OC)nc4OC)c(F)ccc3c(N)c2C1=O
0.062
3) CCN1Cc2nc3c(-c4cnccc4OC)cccc3c(N)c2C1=O
0.079
4) CCCN1Cc2nc3c(-c4cc(C(F)(F)F)ccc4F)cccc3c(N)c2C1=O
0.55

Record summary for `COc1ccc(F)c(-c2c(F)ccc3c(N)c4c(nc23)CN(C2CC2)C4=O)c1` : reported Relative Potentiation for GABAA1 = 0.002

====

# STUDY_SYSTEM: GABAA receptor α2β3γ2 (Homo sapiens, UniProt P18507+P47869)
# Construct: expressed in transfected cells; host or cells: Xenopus laevis oocytes injected with cRNA
# Sequence (P47869 29-451): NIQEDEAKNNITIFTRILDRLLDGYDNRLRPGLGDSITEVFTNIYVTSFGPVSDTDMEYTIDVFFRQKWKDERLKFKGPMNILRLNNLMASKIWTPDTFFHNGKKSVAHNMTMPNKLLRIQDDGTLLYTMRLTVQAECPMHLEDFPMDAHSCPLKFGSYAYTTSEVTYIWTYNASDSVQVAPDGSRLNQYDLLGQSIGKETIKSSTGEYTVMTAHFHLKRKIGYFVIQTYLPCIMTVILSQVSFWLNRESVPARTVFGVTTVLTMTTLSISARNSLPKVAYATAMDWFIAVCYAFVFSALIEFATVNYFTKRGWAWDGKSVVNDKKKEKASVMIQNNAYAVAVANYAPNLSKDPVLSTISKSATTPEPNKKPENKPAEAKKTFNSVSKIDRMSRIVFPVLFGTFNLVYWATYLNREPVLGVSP
# Sequence (P28472 26-473 partner): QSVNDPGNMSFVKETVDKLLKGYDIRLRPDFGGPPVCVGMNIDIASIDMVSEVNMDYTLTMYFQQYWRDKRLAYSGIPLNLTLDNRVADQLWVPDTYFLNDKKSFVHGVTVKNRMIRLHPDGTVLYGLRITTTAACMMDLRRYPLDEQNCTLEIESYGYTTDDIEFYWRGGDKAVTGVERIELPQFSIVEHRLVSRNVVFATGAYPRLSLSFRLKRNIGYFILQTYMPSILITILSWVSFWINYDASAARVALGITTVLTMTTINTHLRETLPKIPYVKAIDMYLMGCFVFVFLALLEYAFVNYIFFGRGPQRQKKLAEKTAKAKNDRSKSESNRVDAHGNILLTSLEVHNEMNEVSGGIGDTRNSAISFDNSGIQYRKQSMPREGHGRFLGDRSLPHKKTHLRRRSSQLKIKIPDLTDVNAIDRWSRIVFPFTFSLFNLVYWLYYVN
# Sequence (P18507 40-475): as the sequence (P18507 40-475) above
# TEST_DETAILS: Two-electrode voltage-clamp potentiation of GABA EC10 current in Xenopus oocytes, GABAA2
# Assay type: cell-based
# MEASUREMENT_PARAMETERS: percentage potentiation of GABA EC10 current divided by that of diazepam
Relative Potentiation for GABAA2 below 0.2 gives N; Relative Potentiation for GABAA2 at or above it gives Y.

Query: Threshold query (Relative Potentiation for GABAA2 >= 0.2) on `COc1ccncc1-c1cccc2c(N)c3c(nc12)CN(C1CCC1)C3=O`
Response: Y

Query: Quick check, Relative Potentiation for GABAA2 >= 0.2? `COc1ccc(-c2c(F)ccc3c(N)c4c(nc23)CN(C2CCC2)C4=O)c(OC)c1`
Response: Y

Query: Is Relative Potentiation for GABAA2 for `CCCN1Cc2nc3c(-c4ccc(OC)nc4OC)c(F)ccc3c(N)c2C1=O` at or above 0.2?
Response: Y

Query: Record `CCN1Cc2nc3c(-c4cccc(OC)c4F)cccc3c(N)c2C1=O` ; criterion: Relative Potentiation for GABAA2 no lower than 0.2. Met?
Response: Y

Query: Say whether `CCN1Cc2nc3c(-c4c(F)cc(OC)cc4F)c(F)ccc3c(N)c2C1=O` shows Relative Potentiation for GABAA2 of 0.2 or more.
Response: N

Query: // inclusive: Relative Potentiation for GABAA2 at least 0.2? input: `COc1ncc(-c2cccc3c(N)c4c(nc23)CN(C2CCC2)C4=O)c(OC)n1`
Response: Y

Query: Hi, just wondering whether `COc1ccc(C)cc1-c1cccc2c(N)c3c(nc12)CN(Cc1ccc2c(c1)OCO2)C3=O` shows Relative Potentiation for GABAA2 of 0.2 or higher.
Response: Y

Query: Could you tell me if the measured Relative Potentiation for GABAA2 of `COc1ncccc1-c1c(F)ccc2c(N)c3c(nc12)CN([C@H]1CCOC1)C3=O` reaches 0.2 or more?
Response: N

Query: Tell me whether Relative Potentiation for GABAA2 is at least 0.2 here: `COc1ccc(CN2Cc3nc4c(-c5ccc(C)nc5Cl)cccc4c(N)c3C2=O)cc1OC`
Response: Y

Query: Hi, just wondering whether `CCCN1Cc2nc3c(-c4ccc(C)nc4C)cccc3c(N)c2C1=O` shows Relative Potentiation for GABAA2 of 0.2 or higher.
Response: Y

Query: Determine whether this molecule has Relative Potentiation for GABAA2 no lower than 0.2: `Nc1c2c(nc3c(-c4cnccn4)cccc13)CN(C1CCC1)C2=O`
Response: N

Query: Please check the record `CCCN1Cc2nc3c(-c4cc(Cl)ccc4OC)cccc3c(N)c2C1=O` and state if its Relative Potentiation for GABAA2 is at or above 0.2.
Response: Y

Query: Kindly determine if Relative Potentiation for GABAA2 recorded for `CCCN1Cc2nc3c(-c4cnccc4C)cccc3c(N)c2C1=O` is above or exactly 0.2.
Response: Y

Query: Is Relative Potentiation for GABAA2 for `N#Cc1ccccc1-c1cccc2c(N)c3c(nc12)CN(C1CCC1)C3=O` at or above 0.2?
Response: N

Query: Can `CCN1Cc2nc3c(-c4ccc(OC)c(OC)c4)cccc3c(N)c2C1=O` be said to have Relative Potentiation for GABAA2 at or above 0.2?
Response: N

Query: Item `COc1ccc(-c2cccc3c(N)c4c(nc23)CN(C2CCC2)C4=O)cn1` with Relative Potentiation for GABAA2 of 0.2 or above?
Response: N

Query: Exam item: decide whether the reported Relative Potentiation for GABAA2 for `COc1ccc(F)c(-c2cccc3c(N)c4c(nc23)CN(C2CCC2)C4=O)c1` is at least 0.2.
Response: Y

====

# STUDY_SYSTEM: GABAA receptor α2β3γ2 (Homo sapiens, UniProt P18507+P47869)
# Construct: expressed in transfected cells; host or cells: Xenopus laevis oocytes injected with cRNA
# TEST_DETAILS: Two-electrode voltage-clamp potentiation of GABA EC10 current in Xenopus oocytes, GABAA2
# Type: cell-based
# MEASUREMENT_PARAMETERS: percentage potentiation of GABA EC10 current divided by that of diazepam
# Experimental: GABAA receptors were heterologously expressed in Xenopus oocytes by injecting cRNA corresponding to human α1, α2, α3, α5, β2, P3 and γ2 subunits of the GABAA receptor genes. […] Modulatory effect of test compound is determined and compared across subtypes. […] All measurements were done in a medium containing ND-96 (96 NaCl, 2 KCl, 1.8 CaCl2.2H2O, 1 MgCl2.6H2O, 5 HEPES, in mM, pH 7.5). […] The concentration of GABA corresponded to the EC10 value calculated for each oocyte. […]
Task for the reader: assign each of the following molecules its reported Relative Potentiation for GABAA2.
Give bare numbers.

1) Cc1ccc(-c2cccc3c(N)c4c(nc23)CN(C2CCC2)C4=O)c(F)n1
0.3

State the recorded Relative Potentiation for GABAA2 for every item in the following list.
1. Cc1ccc(-c2cccc3c(N)c4c(nc23)CN(C2CC2)C4=O)cn1
2. COc1cccc(C#N)c1-c1cccc2c(N)c3c(nc12)CN(C1CCC1)C3=O
3. COc1cccc(F)c1-c1cccc2c(N)c3c(nc12)CN(C1CC(C)C1)C3=O (centres unmarked)
4. CCN1Cc2nc3c(-c4cccc(F)c4OC)cccc3c(N)c2C1=O
5. Cc1ccc(-c2cccc3c(N)c4c(nc23)CN(C2CCC2)C4=O)nc1

Response:
[0.1, 0.21, 0.36, 0.068, 0.13]

Could you report Relative Potentiation for GABAA2 for every entry in the following list?
1. COc1ccc(CN2Cc3nc4c(-c5cnccc5OC)cccc4c(N)c3C2=O)cc1
2. COc1cnccc1-c1c(F)ccc2c(N)c3c(nc12)CN(C1CCC1)C3=O
3. Cc1cc(-c2cccc3c(N)c4c(nc23)CN(C2CCC2)C4=O)cnc1F
4. COc1cc(F)ccc1-c1c(F)ccc2c(N)c3c(nc12)CN(C1CCC1)C3=O
5. CCCN1Cc2nc3c(-c4cnc(OC)cc4C)cccc3c(N)c2C1=O
6. Cc1ccncc1-c1cccc2c(N)c3c(nc12)CN(C1CCC1)C3=O

Response:
1: 0.52; 2: 0.27; 3: 0.2; 4: 0.15; 5: 0.23; 6: 0.13

Please give Relative Potentiation for GABAA2 for each item listed below.
1. CCN1Cc2nc3c(-c4cnccc4C)cccc3c(N)c2C1=O
2. COc1ccc(-c2c(F)ccc3c(N)c4c(nc23)CN(C2CCC2)C4=O)cn1
3. CCN1Cc2nc3c(-c4c(F)cccc4OC)cccc3c(N)c2C1=O
4. CCN1Cc2nc3c(-c4ccc(OC)cc4F)cccc3c(N)c2C1=O
5. COc1ccc(-c2cccc3c(N)c4c(nc23)CN([C@H]2C[C@@H](C)C2)C4=O)c(C)n1
6. N#Cc1ccc(-c2cccc3c(N)c4c(nc23)CN(C2CCC2)C4=O)nc1
7. CCN1Cc2nc3c(-c4ccc(OC)nc4OC)c(F)ccc3c(N)c2C1=O
8. CCCN1Cc2nc3c(-c4cccnc4F)cccc3c(N)c2C1=O

Response:
1. 0.14
2. 0.19
3. 0.15
4. 0.036
5. 0.3
6. 0.15
7. 0.18
8. 0.37

For every item below, please supply its Relative Potentiation for GABAA2.
1. CCN1Cc2nc3c(-c4cccnc4OC)c(F)ccc3c(N)c2C1=O
2. COc1cc(F)ccc1-c1cccc2c(N)c3c(nc12)CN(C1CCC1)C3=O
3. CCN1Cc2nc3c(-c4ccc(OC)c(F)c4)cccc3c(N)c2C1=O
4. COc1ccc(-c2c(F)ccc3c(N)c4c(nc23)CN(C2CCC2)C4=O)cc1OC
5. COc1ccc(CN2Cc3nc4c(-c5c(F)cccc5OC)cccc4c(N)c3C2=O)cc1OC
6. COc1cccc(F)c1-c1cccc2c(N)c3c(nc12)CN(C1CCCC1)C3=O

Response:
[0.28, 0.26, 0.065, 0.41, 0.2, 0.3]

# credit: patent US20080318943A1
